# Tested on: RSV Long strain
# assay-info: Viral Cytopathic Effect (CPE) Assay
# Assay type: cell-based
# condition-set: human respiratory syncytial virus, 144 h, cell viability after 6 days, Cell Counting kit-8
The following compounds are shown together with reported pEC50 values.
# log scale: pEC50 equals minus log10 of the concentration in mol/L

compound: CS(=O)(=O)c1nn(Cc2nc3cc(Cl)ccc3n2C2CCOC2)c2ccccc12 (centres unmarked) [Example 2-8]
pEC50: 7.44
//
compound: CS(=O)(=O)c1nn(Cc2nc3cc(Cl)ccc3n2C2CCOCC2)c2ccccc12 [Example 2-6]
pEC50: 7.66
//
compound: CC(=O)N1CC[C@@H](n2c(Cn3nc(S(C)(=O)=O)c4ccncc43)nc3cc(Cl)ccc32)C1 [Example 6-1]
pEC50: 8.15

Ask: Field request: pEC50 | item: C[C@H](c1nc2cc(Cl)ccc2n1CCC(F)(F)F)n1nc(S(C)(=O)=O)c2ccncc21 [Example 15-1]
Reply: 6.64

Ask: And for CCC(=O)N1CC[C@@H](n2c(Cn3nc(S(C)(=O)=O)c4ccccc43)nc3cc(Cl)ccc32)C1 [Example 6-3] ?
Reply: 8.22

Ask: And for CS(=O)(=O)c1nn(Cc2nc3cc(Cl)ccc3n2C2CCN(C(=O)CN)C2)c2cnccc12 (centres unmarked) [Example 2-18] ?
Reply: 7.44

Ask: And for CS(=O)(=O)c1nn(Cc2nc3cc(Cl)ccc3n2CCCC(F)(F)F)c2ccccc12 [Example 4-1] ?
Reply: 7.84

Ask: And for CS(=O)(=O)CCCn1c(Cn2cc(S(C)(=O)=O)c3ccccc32)nc2cc(Cl)ccc21 [Example 1-2] ?
Reply: 7.20
